Target: Calpain-2 catalytic subunit (Sus scrofa, UniProt P43367)
Sequence (P43367 whole entry): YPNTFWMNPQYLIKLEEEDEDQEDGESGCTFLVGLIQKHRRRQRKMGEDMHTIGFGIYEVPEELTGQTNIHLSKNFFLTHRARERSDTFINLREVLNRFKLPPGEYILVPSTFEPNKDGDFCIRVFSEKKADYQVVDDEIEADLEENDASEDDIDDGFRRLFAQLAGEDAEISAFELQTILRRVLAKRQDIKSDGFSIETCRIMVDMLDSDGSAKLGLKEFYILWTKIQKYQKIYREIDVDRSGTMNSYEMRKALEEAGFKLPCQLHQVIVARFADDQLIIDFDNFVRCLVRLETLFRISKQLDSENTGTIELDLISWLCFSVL
Assay: pig calpain II inhibitor potency, dose response, biochemical, fluorogenic peptide substrate (AID 1420)
Format: functional
Activity calls are given as the source filed them.
Catalogue of compounds with associated IC50
property-measured: IC50

[
  {
    "structure-smiles": "CC(C)(C)c1ccc(CNc2ccc([N+](=O)[O-])cn2)cc1",
    "target-entity": "Calpain-2 catalytic subunit (Sus scrofa, UniProt P43367)",
    "recorded-result": "5.15 µM (active)"
  },
  {
    "structure-smiles": "CCCCSc1nnc(-c2ccccc2)c2ccccc12",
    "target-entity": "Calpain-2 catalytic subunit (Sus scrofa, UniProt P43367)",
    "recorded-result": "9.31 µM (not active)"
  },
  {
    "structure-smiles": "O=C(Nc1ccc(Nc2ccncc2)cc1)c1ccc(Nc2ccnc3ccc([N+](=O)[O-])cc23)cc1",
    "target-entity": "Calpain-2 catalytic subunit (Sus scrofa, UniProt P43367)",
    "recorded-result": "3.36 µM (not active)"
  },
  {
    "structure-smiles": "Nc1cc(Oc2cccnc2)cc([N+](=O)[O-])c1",
    "target-entity": "Calpain-2 catalytic subunit (Sus scrofa, UniProt P43367)",
    "recorded-result": "> 50 µM (not active)"
  },
  {
    "structure-smiles": "Cc1cccc(Oc2cc(N)cc([N+](=O)[O-])c2)c1",
    "target-entity": "Calpain-2 catalytic subunit (Sus scrofa, UniProt P43367)",
    "recorded-result": "> 50 µM (not active)"
  }
]

====

Entries and their IC50 values follow.
Biological target: Rac GTPase-activating protein 1 (Homo sapiens)
Sequence (Q9H0H5 whole entry): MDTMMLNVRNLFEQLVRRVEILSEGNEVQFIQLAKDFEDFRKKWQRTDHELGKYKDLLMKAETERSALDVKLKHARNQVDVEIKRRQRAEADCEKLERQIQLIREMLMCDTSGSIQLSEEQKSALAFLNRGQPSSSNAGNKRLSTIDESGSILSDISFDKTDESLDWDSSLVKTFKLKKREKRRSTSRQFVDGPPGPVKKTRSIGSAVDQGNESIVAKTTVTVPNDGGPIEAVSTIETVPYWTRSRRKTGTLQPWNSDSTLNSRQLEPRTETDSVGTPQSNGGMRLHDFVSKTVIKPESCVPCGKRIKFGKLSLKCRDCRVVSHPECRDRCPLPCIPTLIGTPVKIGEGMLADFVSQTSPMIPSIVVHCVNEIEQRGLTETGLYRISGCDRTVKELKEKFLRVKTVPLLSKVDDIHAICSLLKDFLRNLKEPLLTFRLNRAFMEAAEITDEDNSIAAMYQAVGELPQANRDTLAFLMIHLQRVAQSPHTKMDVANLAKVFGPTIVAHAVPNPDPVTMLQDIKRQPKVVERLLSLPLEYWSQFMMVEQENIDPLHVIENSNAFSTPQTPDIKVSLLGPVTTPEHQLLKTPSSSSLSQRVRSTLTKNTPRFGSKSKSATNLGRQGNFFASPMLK
Assay: MgcRacGAP GTPase-activating activity inhibitors, confirmation, biochemical, ADP Hunter fluorescence, primary and confirmatory (AID 624330)
Format: functional
The source made the active and inactive calls.
property-measured: IC50

[
  {
    "molecule": "CCOC(=O)N/N=C/c1ccc(N2CCOCC2)s1",
    "recorded-result": "52.6 µM (active)"
  },
  {
    "molecule": "O=C(/C=C/c1ccc(O)c(O)c1)OC(Cc1ccc(O)c(O)c1)C(=O)O (stereo unspecified)",
    "recorded-result": "35 µM (active)"
  },
  {
    "molecule": "CCOc1cc(/C=N/NC(=O)c2ccccc2OCc2ccc(F)cc2)ccc1O",
    "recorded-result": "78.5 µM (active)"
  },
  {
    "molecule": "CCOC(=O)c1c(NC=C2C(=O)CCCC2=O)sc(C)c1C",
    "recorded-result": "102 µM (active)"
  },
  {
    "molecule": "C/N=c1\\scc(-c2ccco2)n1/N=C/c1ccc(O)c(O)c1",
    "recorded-result": "30.3 µM (active)"
  },
  {
    "molecule": "COc1cc(/C(C)=N\\NC(=O)CSc2nc3ccccc3n2C)ccc1O",
    "recorded-result": "41.6 µM (active)"
  },
  {
    "molecule": "Cc1c(N=Nc2ccc(N(C)C)cc2)c(=O)n(-c2ccccc2)n1C",
    "recorded-result": "56.9 µM (active)"
  },
  {
    "molecule": "Nc1ccc(Sc2ccc(N)cc2)cc1",
    "recorded-result": "13.2 µM (active)"
  },
  {
    "molecule": "COC(=O)CCNCCSc1nnc(-c2ccco2)n1Cc1ccccc1",
    "recorded-result": "98.5 µM (active)"
  },
  {
    "molecule": "CCOc1cc(/C=N/Nc2nc(O)nnc2C)ccc1O",
    "recorded-result": "40.2 µM (active)"
  },
  {
    "molecule": "COc1cccc(CNc2ccc3[nH]c(O)nc3c2)c1OCc1ccccc1Cl",
    "recorded-result": "69 µM (active)"
  }
]

====

Molecular target: Corticotropin-releasing factor receptor 2/Corticotropin-releasing factor-binding protein (Homo sapiens, UniProt P24387+Q13324)
Sequence (Q13324 whole entry): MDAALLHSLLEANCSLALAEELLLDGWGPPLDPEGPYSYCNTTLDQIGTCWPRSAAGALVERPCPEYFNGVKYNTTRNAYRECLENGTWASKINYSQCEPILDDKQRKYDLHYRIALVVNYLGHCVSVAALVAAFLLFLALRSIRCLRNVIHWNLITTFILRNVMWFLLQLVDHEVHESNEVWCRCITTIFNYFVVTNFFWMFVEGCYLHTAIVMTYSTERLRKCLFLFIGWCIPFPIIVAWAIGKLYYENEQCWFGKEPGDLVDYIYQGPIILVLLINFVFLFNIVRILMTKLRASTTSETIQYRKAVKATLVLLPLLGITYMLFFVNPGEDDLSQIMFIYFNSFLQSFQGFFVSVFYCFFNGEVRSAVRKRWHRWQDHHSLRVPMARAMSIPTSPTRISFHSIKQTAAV
Sequence (P24387 whole entry): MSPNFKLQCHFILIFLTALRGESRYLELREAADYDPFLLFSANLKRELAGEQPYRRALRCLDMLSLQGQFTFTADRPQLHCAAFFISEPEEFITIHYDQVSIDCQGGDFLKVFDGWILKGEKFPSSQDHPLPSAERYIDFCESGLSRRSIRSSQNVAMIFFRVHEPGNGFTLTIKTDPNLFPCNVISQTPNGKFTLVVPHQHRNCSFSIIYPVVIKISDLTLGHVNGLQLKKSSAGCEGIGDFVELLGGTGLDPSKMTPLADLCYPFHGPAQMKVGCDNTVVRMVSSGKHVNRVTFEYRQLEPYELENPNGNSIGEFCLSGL
Assay: activators of CRF receptor 2 with binding protein – uHTS hits, confirmation (AID 602473)
Format: functional
Conditions: read-out: EC50_Mean
Active and inactive are the calls of the source.
Classes used: active, inactive

[
  {
    "compound": "O=C(COc1ccc(Cl)cc1Cl)Nc1ccccc1F",
    "label-class": "inactive"
  },
  {
    "compound": "CCOc1cc(/C=N/NC(=O)c2ccccc2OCc2ccc(F)cc2)ccc1O",
    "label-class": "inactive"
  },
  {
    "compound": "CC(C(=O)Nc1ccc2c(c1)OCCO2)c1ccc([N+](=O)[O-])cc1 (configuration not stated)",
    "label-class": "active"
  },
  {
    "compound": "Cc1c(C(=O)Nc2c(F)cccc2F)sc2ncn(CC(=O)N3CCCCC3)c(=O)c12",
    "label-class": "inactive"
  },
  {
    "compound": "CCCN(C(=O)c1cc(Cl)nc2ccccc12)C1CCS(=O)(=O)C1 (configuration not stated)",
    "label-class": "inactive"
  },
  {
    "compound": "CCOC(=O)/C(C#N)=C(C)/C=C1\\Sc2ccccc2N1CC",
    "label-class": "active"
  },
  {
    "compound": "CCN(CC(=O)Nc1ccc(NC(C)=O)cc1)C(=O)c1ccc(=O)n(C)n1",
    "label-class": "inactive"
  }
]

====

Target: Large T antigen (Simian virus 40);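 further: Confirmatory-stage PubChem screen for compounds that inhibit SV40 T antigen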
Sequence (P03070 whole entry): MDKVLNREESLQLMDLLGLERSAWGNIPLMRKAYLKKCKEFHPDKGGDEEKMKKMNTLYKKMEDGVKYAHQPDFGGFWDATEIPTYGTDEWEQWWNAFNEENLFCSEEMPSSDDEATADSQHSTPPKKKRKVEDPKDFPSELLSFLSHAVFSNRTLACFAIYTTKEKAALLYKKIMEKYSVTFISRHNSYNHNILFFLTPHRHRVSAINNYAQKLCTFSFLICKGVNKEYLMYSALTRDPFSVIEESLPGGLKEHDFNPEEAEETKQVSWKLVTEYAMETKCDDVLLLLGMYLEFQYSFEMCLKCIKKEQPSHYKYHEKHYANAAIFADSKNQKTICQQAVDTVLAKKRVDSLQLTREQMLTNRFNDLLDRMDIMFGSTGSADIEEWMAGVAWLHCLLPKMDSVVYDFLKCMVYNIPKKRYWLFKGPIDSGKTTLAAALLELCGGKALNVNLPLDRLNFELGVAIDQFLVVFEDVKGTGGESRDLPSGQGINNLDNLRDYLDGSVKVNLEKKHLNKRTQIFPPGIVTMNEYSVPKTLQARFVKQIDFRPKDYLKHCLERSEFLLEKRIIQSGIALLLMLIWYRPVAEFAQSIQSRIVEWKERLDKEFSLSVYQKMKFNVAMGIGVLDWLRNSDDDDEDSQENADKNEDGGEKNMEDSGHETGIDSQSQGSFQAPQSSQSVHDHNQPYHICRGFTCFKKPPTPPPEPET
Format: functional, Betapolyomavirus macacae
Calls of active or inactive are those of the source.
property-measured: IC50

[
  {
    "structure-smiles": "Oc1ccc(/C=N\\Nc2cnnc(O)c2Cl)c(O)c1",
    "recorded-result": "15.7 µM (active)"
  },
  {
    "structure-smiles": "O=C(CN1CCN(c2ccc(O)cc2)CC1)Nc1cc(S(=O)(=O)N2CCOCC2)ccc1Cl",
    "recorded-result": "17 µM (active)"
  },
  {
    "structure-smiles": "COCc1cc(C)nc(SCC(=O)c2ccc(O)c(O)c2)c1C#N",
    "recorded-result": "3.71 µM (active)"
  },
  {
    "structure-smiles": "C(=N\\Nc1nc2ccccc2[nH]1)/c1cccs1",
    "recorded-result": "16.9 µM (active)"
  },
  {
    "structure-smiles": "CC1=NN(c2cccc(C(=O)O)c2)C(=O)/C1=C\\C=C/c1ccccc1",
    "recorded-result": "20.4 µM (active)"
  },
  {
    "structure-smiles": "C/N=c1\\scc(-c2ccco2)n1/N=C/c1ccc(O)c(O)c1",
    "recorded-result": "25.5 µM (active)"
  }
]

====

Experiment: inhibitors of SNCA 5'UTR-driven reporter translation, confirmation, H4 neuroglioma cells, luminescence (AID 1988)
Type: functional, cell-based
Calls of active or inactive are those of the source.
Reported EC50 by item:

[
  {
    "compound": "O=c1c2[nH]cnc2n(-c2ccc(F)cc2)c(=O)n1Cc1ccccc1",
    "EC50": "> 120 µM (not active)"
  },
  {
    "compound": "CCS(=O)(=O)c1nc(S(=O)(=O)c2ccc(C)cc2)c(N2CC(C)CC(C)C2)s1 (centres undefined)",
    "EC50": "> 120 µM (not active)"
  },
  {
    "compound": "COc1ccc(CCNc2ncnc3sc(C)cc23)cc1OC",
    "EC50": "> 120 µM (not active)"
  },
  {
    "compound": "COc1ccc(CN2CCN(Cc3cccn3-c3ncccn3)CC2CCO)c(C)c1C (centres undefined)",
    "EC50": "12.1 µM (active)"
  }
]

====

Biological target: Luciferin 4-monooxygenase (Photinus pyralis)
Sequence (P08659 whole entry): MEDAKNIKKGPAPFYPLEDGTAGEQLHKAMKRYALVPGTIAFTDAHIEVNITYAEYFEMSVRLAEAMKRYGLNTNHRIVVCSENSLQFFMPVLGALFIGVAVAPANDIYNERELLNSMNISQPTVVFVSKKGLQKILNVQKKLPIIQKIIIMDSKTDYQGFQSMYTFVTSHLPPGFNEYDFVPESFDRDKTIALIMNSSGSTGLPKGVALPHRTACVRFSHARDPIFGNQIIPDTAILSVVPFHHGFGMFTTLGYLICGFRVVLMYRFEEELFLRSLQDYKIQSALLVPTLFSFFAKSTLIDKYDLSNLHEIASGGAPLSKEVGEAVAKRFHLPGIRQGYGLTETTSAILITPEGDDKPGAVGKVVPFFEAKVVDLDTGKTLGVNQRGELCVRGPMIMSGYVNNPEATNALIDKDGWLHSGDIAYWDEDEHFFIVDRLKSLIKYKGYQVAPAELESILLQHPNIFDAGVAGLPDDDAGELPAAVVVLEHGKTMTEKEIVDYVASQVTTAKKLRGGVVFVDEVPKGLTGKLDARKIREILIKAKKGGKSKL
Assay: firefly luciferase enzyme inhibitors, dose response, biochemical, luminescence (AID 1891)
The source made the active and inactive calls.

[
  {
    "compound": "O=C(c1ccc2c3n(nc2c1)-c1ccccc1CO3)N1CCOCC1",
    "EC50": "1.55 µM (active)"
  },
  {
    "compound": "CCNc1nc(NC#N)nc(SCC(=O)OCC)n1",
    "EC50": "> 112 µM (not active)"
  },
  {
    "compound": "O=c1cc(CN2CCN(c3ccccc3O)CC2)nc2sccn12",
    "EC50": "> 112 µM (not active)"
  },
  {
    "compound": "COc1ccc(C(=O)N2CCCc3ccccc32)cc1",
    "EC50": "> 112 µM (not active)"
  },
  {
    "compound": "O=C(Nc1ccc(F)cc1)C1CCCCC1",
    "EC50": "> 112 µM (not active)"
  },
  {
    "compound": "CSc1ccc(/C=C2\\C(=N)N3N=C(CC(=O)N4CCOCC4)SC3=NC2=O)cc1",
    "EC50": "> 112 µM (not active)"
  },
  {
    "compound": "Cc1ccc(N=Nc2cc(C)ccc2N)cc1",
    "EC50": "0.149 µM (active)"
  },
  {
    "compound": "COc1cc(/C=N/NC(N)=O)ccc1OCC(=O)N1C(C)CCCC1C (stereo not given)",
    "EC50": "> 112 µM (not active)"
  },
  {
    "compound": "CCN(CC)S(=O)(=O)c1cc(OCC(N)=O)c(C)cc1Cl",
    "EC50": "> 112 µM (not active)"
  },
  {
    "compound": "O=C(Nc1nccs1)C1CCN(S(=O)(=O)c2ccc(F)cc2)CC1",
    "EC50": "> 112 µM (not active)"
  }
]
